Kindly supply the reported growth values for the records listed here.
tested on: SF-295 CNS; assay: NCI-60 one-dose screen, 48 h (100 = growth as untreated, 0 = no growth, -100 = all killed); details: 10 µM
Compounds without any hit were thinned out: in the full panel of roughly 83,000, 20% have a hit.
Give bare numbers, in %.

Solved entries:
INSERT INTO assay_data (molecule, observed) VALUES
  ('O=C(N/N=C/c1cc2ccccc2c2ccccc12)c1cc(O)c(O)c(O)c1', 88.8),
  ('CCOC(=O)C1CCc2c(ccc3ccccc23)N1CCC#N (stereo not drawn)', 88);

The record that follows has no growth shown yet.
SF-295 CNS / growth / CCCCOc1ccc(NC(=O)Nc2nnc(C)s2)cc1 : value? 87.4

----------
Tested on: UACC-62 melanoma
Assay: NCI-60 one-dose screen, 48 h (100 = growth as untreated, 0 = no growth, -100 = all killed)
Details: 10 µM
Procedure: Growth inhibition of the UACC-62 human tumor cell line is measured as a screen for anti-cancer activity. Cells are grown in 96 well plates and exposed to the test compound for 48 hours. Compounds are tested at a single concentration, which is 10^-5 M for most compounds. The reported endpoint is percent growth (GI% or GIPRCNT), where numbers from 0 - 100% represent growth inhibition, and numbers from -100% - 0 represent cell death. For example, a value of 40 represents 60% growth inhibition. […]
The panel holds about 83,000 compounds, 20% with a hit somewhere; the sample as a whole holds those more often.
Kindly apply the following: true if growth is less than 30%, false in every other case.

INSERT INTO assay_data (compound, assigned_label) VALUES
  ('COc1ccc2c(c1)O/C(=C\c1ccc([N+](=O)[O-])o1)C2=O', 'true'),
  ('S=c1[nH]ccn1-c1c(Cl)cccc1Cl', 'false'),
  ('COc1cccc(Cn2c(-c3nonc3N)nc3ccccc32)c1', 'false');

Answer whether the compound COc1ccc(-c2nc3sccn3c2-c2nc3c([nH]2)C(=O)c2ccccc2C3=O)cc1 has growth strictly less than 30% false

Try COc1ccc(OC)c2c1C(=O)CC2C (stereo unspecified) next. false

Try CC/C(=C(/c1ccc(OCCN(C)C)cc1)c1ccc(OC(=O)CCC(=O)c2c(C)[nH]c(/C=C3\N=C(c4ccc[nH]4)C=C3OC)c2C)cc1)c1ccccc1 next. true

----------
tested on: SW-620 colon; assay: NCI-60 one-dose screen, 48 h (100 = growth as untreated, 0 = no growth, -100 = all killed); settings: 10 µM
Compounds without any hit were thinned out: in the full panel of roughly 83,000, 20% have a hit.
measure name: growth (%)
Answers are plain numbers, in %.

INSERT INTO measurements (molecule, unit_text, observed) VALUES
  ('CCOC(=O)C(=Cc1ccc(Br)cc1)C(=O)OCC', '%', -71.2),
  ('O=S(=O)(NCCCNc1nccc(-c2c(-c3ccc(F)cc3)nc3sccn23)n1)c1ccc(F)cc1', '%', 47.1),
  ('CC(C)=CCc1cc(O)cc2c1OC(C=C(C)C)C1=C2C(=O)C2=C(NCCS2(=O)=O)C1=O (stereo unspecified)', '%', 4.68),
  ('COc1ccc(OC)c2c1C(=O)CC2C (stereo unspecified)', '%', 105),
  ('C[N+](C)(C)c1ncnc2nc[nH]c12', '%', 120);

The record that follows has no growth shown yet.
SW-620 colon / growth / COc1ccc(C(=O)/C=C/c2cc(-c3cc(OC)c(OC)c(OC)c3)n[nH]2)cc1 : value? -37.6

----------
tested on: 786-0 renal; assay: NCI-60 one-dose screen, 48 h (100 = growth as untreated, 0 = no growth, -100 = all killed); details: 10 µM
The panel holds about 83,000 compounds, 20% with a hit somewhere; the sample as a whole holds those more often. The source made the active and inactive calls. How the source made its calls: active means growth percent below 10; inactive means the rest.
measure name: growth

Solved entries:
INSERT INTO results (compound, assayed_target, observed) VALUES
  ('CCN(CC)CCC(=O)Nc1cccc2c1C(=O)c1c(c(O)c3ccccc3c1O)C2=O', '786-0 renal', '4.91% (active)'),
  ('O=S(=O)(Nc1ccccn1)c1ccc(N=Nc2ccc(O)c3ncccc23)cc1', '786-0 renal', '21.4% (inactive)'),
  ('Nc1c(C(=O)Nc2cccc(F)c2)sc2nc3c(cc12)C(=O)CCC3', '786-0 renal', '51.6% (inactive)'),
  ('Cn1c([N+](=O)[O-])cnc1/C=C1\Oc2cc(Cl)ccc2C1=O', '786-0 renal', '-6.4% (active)'),
  ('Cc1cc(Cl)nc(N(CCCNc2ccnc3cc(Cl)ccc23)Cc2cccs2)n1', '786-0 renal', '17.4% (inactive)');

// input: 2 compounds below; output: growth for each
1. O=C(c1ccc(Cl)cc1Cl)N1CCOCC1
2. O=C(N/N=C\c1cc(Cl)ccc1[N+](=O)[O-])c1ccco1

1: 97.4% (inactive); 2: 95.6% (inactive)

// input: 4 compounds below; output: growth for each
1. CC12O[C@H](C[C@@H](OC(=O)c3ccccc3)[C@H]1O)n1c3ccccc3c3c4c(c5c6ccccc6n2c5c31)C(=O)NC4=O
2. NC(=O)c1ccc(-c2cccc3c(=O)nc(N4CCOCC4)oc23)cc1
3. CCN(CC)CCCC(C)Nc1ccc2ccc(Cl)cc2n1 (stereo not drawn)
4. O=C(Nc1nc2ccc(F)cc2s1)c1cc(-c2ccc(F)cc2)n2nc(-c3ccccc3)cc2n1

1. 78.7% (inactive)
2. 100% (inactive)
3. 93.8% (inactive)
4. 101% (inactive)

// input: 2 compounds below; output: growth for each
1. Cc1ccc(NC(=O)Nc2nc3ccccc3s2)cc1NC(=O)Nc1nc2ccccc2s1
2. O=C(CCCCCCC(=O)Nc1cccnc1)NO

97.1% (inactive)
70.4% (inactive)
